Method description: in vitro
Condition notes: human, % of cell viability compared to control, 2. measurement, HepG2, 25 µM
viability at 25 µM reference
Value type: viability at 25 µM (%)

[
  {
    "Molecule": "COc1ccc2cc3[n+](cc2c1OCc1cccc(C)c1)CCc1cc2c(cc1-3)OCO2 [16c, 9-O-(3-methylbenzyl)berberine chloride]",
    "Observed value": 52.9
  },
  {
    "Molecule": "COc1ccc2cc3[n+](cc2c1OCc1ccc(C)cc1)CCc1cc2c(cc1-3)OCO2 [16d, 9-O-(4-methylbenzyl)berberine chloride]",
    "Observed value": 45
  },
  {
    "Molecule": "COc1ccc2cc3[n+](cc2c1OCc1cccc(Br)c1)CCc1cc2c(cc1-3)OCO2 [16f, 9-O-(3-brombenzyl)berberine chloride]",
    "Observed value": 52.7
  },
  {
    "Molecule": "COc1ccc2cc3[n+](cc2c1OCc1ccccc1)CCc1cc2c(cc1-3)OCO2 [16a, 9-O-benzylberberine chloride]",
    "Observed value": 48.9
  },
  {
    "Molecule": "COc1ccc2cc3[n+](cc2c1OCc1ccc(Br)cc1)CCc1cc2c(cc1-3)OCO2 [16g, 9-O-(4-brombenzyl)berberine chloride]",
    "Observed value": 44.7
  },
  {
    "Molecule": "COc1ccc2cc3[n+](cc2c1OCc1ccc(Cl)c(Cl)c1)CCc1cc2c(cc1-3)OCO2 [16k]",
    "Observed value": 35.5
  }
]
